Listed here: items and their measured composite z-score.
- System: Wnt5a (protein binding on small-molecule microarray)
- assay: Wnt5a binders on small-molecule microarray, primary screen, biophysical, 635/667 nm fluorescence (AID 1142);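 note: fluorescence read at 667 nm with signal to noise per printed feature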
- conditions: 635 nm fluorescence, higher = more signal
Reply: number alone, nothing else.

>>> assay_value("CCOC(=O)C[C@H]1[C@H](OC(=O)c2ccccc2-c2ccccc2)[C@@H](NC(=O)c2ccc(-c3ccccc3)cc2)c2cc(OCCCO)ccc2N1C(=O)Cc1ccc(OC)cc1")
0.17

Specify composite z-score for CCC(=O)[C@]12O[C@@]3([C@@H]4C(=O)OCC[C@@H]41)N(CC)C(C)=C(C(=O)OC)[C@@H](c1ccccc1)N3C2=O and stop. -0.0488

Specify composite z-score for CC(C)(C)OC(=O)CC[C@]1(C(=O)N2CCCCC2)N=C(c2ccc(OCCCO)cc2)O[C@H]1c1ccccc1 and stop. 0.836

###

- assay_system: Concanavalin-A (Canavalia ensiformis) (UniProt P02866)
- Sequence (P02866 whole entry, looked up): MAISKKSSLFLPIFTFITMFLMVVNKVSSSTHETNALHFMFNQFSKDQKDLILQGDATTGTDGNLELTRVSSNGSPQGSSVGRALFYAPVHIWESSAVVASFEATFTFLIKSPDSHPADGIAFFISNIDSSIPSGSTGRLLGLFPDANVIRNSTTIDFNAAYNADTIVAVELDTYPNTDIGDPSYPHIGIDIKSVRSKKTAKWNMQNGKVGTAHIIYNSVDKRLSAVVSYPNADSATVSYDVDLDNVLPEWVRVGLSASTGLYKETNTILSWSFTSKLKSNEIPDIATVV
- assay: ConA small-molecule binders, primary screen, artefact control for SMM control protein annotation, biochemical, small-molecule microarray, Alexa647 label, 635 nm (AID 1127);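 note: z combines 667 nm emission intensity with signal-to-noise across three replicate slides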
- conditions: ConA-A647 binding fluorescence, higher = more signal
property_name: composite z-score
Reply: number alone, nothing else.

Known results for compounds:
>>> assay_value("CCc1cccc(NC(=O)O[C@H]2[C@H](OC(=O)Nc3ccccc3)[C@@H](OC(=O)Nc3ccccc3)[C@@H](OC)O[C@@H]2CO)c1")
1.14
>>> assay_value("Cc1ccc(N2C(=O)c3ccccc3[C@@H](C(=O)NCc3ccccc3)[C@@H]2c2ccc(CO)cc2)nc1")
-1.28
>>> assay_value("C=C(CCCC)C(=O)CC[C@@H](OC(=O)c1cccnc1)c1cccc(OCCO)c1")
-0.158

Pending compound:
Specify composite z-score for Cc1ccc(N2C(=O)c3ccccc3[C@@H](C(=O)NCC(F)(F)F)[C@@H]2c2ccc(CO)cc2)nc1 and stop. -1.9

###

- assay_system: Pro-neuregulin-1, membrane-bound isoform (Homo sapiens)
- assay: NRG1 binders on small-molecule microarrays, primary screen, psychiatric disease protein project, biochemical, small-molecule microarray, fluorescence 635/667 (AID 1075);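 note: score combines 667 nm spot fluorescence with signal to noise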
- conditions: NRG1 binding, 635 nm fluorescence, higher = more signal
Rule: composite z-score under 0.7 gives label 0, otherwise label 1.

>>> qualitative_label("CC(C)NC(=O)[C@@]1(Cc2ccccc2I)c2ccccc2C(=O)N(C2CCCCC2)[C@H]1c1ccc(CO)cc1")
"label 1"
>>> qualitative_label("COCCOC(=O)N1C(=O)[C@@]2(c3cc(C#CCC(C(=O)OC)C(=O)OC)ccc31)[C@H](c1ccccc1OCCO)N1[C@H](c3ccccc3)[C@H](c3ccccc3)OC(=O)[C@H]1[C@@H]2C(=O)N1CCCCCCC1")
"label 1"
>>> qualitative_label("COc1ccc([Si](C)(C)[C@@H]2[C@@H](CCO)O[C@]3(C(=O)N(Cc4ccc(NC(=O)[C@H](C)O)cc4)c4ccccc43)[C@H]2C)cc1")
"label 1"
>>> qualitative_label("COC(=O)Cn1c(C(=O)N2CCCC2)cc2c1C[C@H]1CN(C(=O)c3ccccc3)[C@@](Cc3ccccc3)(C(=O)OC)[C@@H]21")
"label 1"

Turning now to a further molecule:
Decide: composite z-score of CN(C)CCCC[C@@H]1NC(=O)[C@@H]2C[C@H](C(=O)NCCCCCNC(=O)CS)[C@H](c3ccc(O)cc3)N2C1=O >= 0.7? label 0

###

- assay_system: Torsin-1A-interacting protein 2 (Homo sapiens)
- assay: LULL1 binders on small-molecule microarray, primary screen, cell lysate, human LULL1 lysate, 635/667 nm fluorescence (AID 1092);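 note: probe is lysate of COS7 cells overexpressing human LULL1; score merges per-feature 667 nm fluorescence with signal-to-noise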
- conditions: hLULL1 lysate binding, 635 nm fluorescence, higher = more signal
Rule: composite z-score under 2 gives N, otherwise Y.

// known answers, use as guide
>>> qualitative_label("C=CCN1C(=O)[C@@]2(O[C@@H](CCn3cc([C@H](O)c4ccccc4)nn3)[C@H]([Si](C)(C)c3ccc(OC)cc3)[C@H]2C)c2cc(N3CCOC3=O)ccc21")
"N"
>>> qualitative_label("COCCCNC(=O)[C@@H]1c2ccccc2C(=O)N(CC23CC4CC(CC(C4)C2)C3)[C@H]1c1ccc(CO)cc1")
"N"
>>> qualitative_label("COCCOC(=O)N1C(=O)[C@@]2(c3cc(C#CCCO)ccc31)[C@H](c1ccc(OCCO)cc1)N1[C@H](c3ccccc3)[C@H](c3ccccc3)OC(=O)[C@H]1[C@@H]2C(=O)NC[C@H](O)c1ccccc1")
"Y"
>>> qualitative_label("O=C1C[C@@](C(=O)NC2CC2)(c2ccc([N+](=O)[O-])cc2)[C@@H](c2ccc(CO)cc2I)N1CC12CC3CC(CC(C3)C1)C2")
"Y"
>>> qualitative_label("CC(C)[Si]1(C(C)C)O[C@@H](c2ccccc2)c2cc(C3CC3)nc(-c3ccc(Oc4ccccc4)cc3)c21")
"N"

Decide: composite z-score of COc1cc2c(cc1OC)CN(C(=O)[C@@H]1[C@H]3C(=O)O[C@H](c4ccccc4)[C@H](c4ccccc4)N3[C@H](c3ccccc3OCCO)[C@@]13C(=O)Nc1ccccc13)CC2 >= 2? N

###

Listed here: items and their measured z-score.
- assay: yeast growth modulation, basal conditions, primary screen, YJM789 clinical isolate, OD600, 24 h (AID 1089);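 note: growth of clinical yeast isolate S. cerevisiae YJM 789 seeded 1000 cells per well; test concentration not given here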
- conditions: S. cerevisiae YJM789 growth, higher = more signal, called active from +8 up or from −8 down
Calls of active or inactive are those of the source.

Known results for molecules:
>>> assay_value("COCCOC(=O)N1C(=O)[C@@]2(c3ccccc31)[C@H](C(=O)N1CCc3cc(OC)c(OC)cc3C1)[C@H]1C(=O)O[C@H](c3ccccc3)[C@H](c3ccccc3)N1[C@@H]2c1ccccc1OCCO")
"0.384 (inactive)"
>>> assay_value("CN(C)CCCC[C@@H]1NC(=O)[C@@H]2C[C@H](C(=O)O)[C@H](c3ccc(O)cc3)N2C1=O")
"-0.937 (inactive)"

Pending molecule:
Specify z-score for C=CCN1C(=O)[C@@]2(O[C@@H](CCn3cc([C@H](O)c4ccccc4)nn3)[C@H]([Si](C)(C)c3ccc(OC)cc3)[C@H]2C)c2cc(N3CCOC3=O)ccc21 and stop. -1.26 (inactive)

###

Listed here: items and their measured composite z-score.
- assay_system: Neurogenic locus notch homolog protein 2 (Homo sapiens) (UniProt Q04721)
- Sequence (Q04721 whole entry, looked up): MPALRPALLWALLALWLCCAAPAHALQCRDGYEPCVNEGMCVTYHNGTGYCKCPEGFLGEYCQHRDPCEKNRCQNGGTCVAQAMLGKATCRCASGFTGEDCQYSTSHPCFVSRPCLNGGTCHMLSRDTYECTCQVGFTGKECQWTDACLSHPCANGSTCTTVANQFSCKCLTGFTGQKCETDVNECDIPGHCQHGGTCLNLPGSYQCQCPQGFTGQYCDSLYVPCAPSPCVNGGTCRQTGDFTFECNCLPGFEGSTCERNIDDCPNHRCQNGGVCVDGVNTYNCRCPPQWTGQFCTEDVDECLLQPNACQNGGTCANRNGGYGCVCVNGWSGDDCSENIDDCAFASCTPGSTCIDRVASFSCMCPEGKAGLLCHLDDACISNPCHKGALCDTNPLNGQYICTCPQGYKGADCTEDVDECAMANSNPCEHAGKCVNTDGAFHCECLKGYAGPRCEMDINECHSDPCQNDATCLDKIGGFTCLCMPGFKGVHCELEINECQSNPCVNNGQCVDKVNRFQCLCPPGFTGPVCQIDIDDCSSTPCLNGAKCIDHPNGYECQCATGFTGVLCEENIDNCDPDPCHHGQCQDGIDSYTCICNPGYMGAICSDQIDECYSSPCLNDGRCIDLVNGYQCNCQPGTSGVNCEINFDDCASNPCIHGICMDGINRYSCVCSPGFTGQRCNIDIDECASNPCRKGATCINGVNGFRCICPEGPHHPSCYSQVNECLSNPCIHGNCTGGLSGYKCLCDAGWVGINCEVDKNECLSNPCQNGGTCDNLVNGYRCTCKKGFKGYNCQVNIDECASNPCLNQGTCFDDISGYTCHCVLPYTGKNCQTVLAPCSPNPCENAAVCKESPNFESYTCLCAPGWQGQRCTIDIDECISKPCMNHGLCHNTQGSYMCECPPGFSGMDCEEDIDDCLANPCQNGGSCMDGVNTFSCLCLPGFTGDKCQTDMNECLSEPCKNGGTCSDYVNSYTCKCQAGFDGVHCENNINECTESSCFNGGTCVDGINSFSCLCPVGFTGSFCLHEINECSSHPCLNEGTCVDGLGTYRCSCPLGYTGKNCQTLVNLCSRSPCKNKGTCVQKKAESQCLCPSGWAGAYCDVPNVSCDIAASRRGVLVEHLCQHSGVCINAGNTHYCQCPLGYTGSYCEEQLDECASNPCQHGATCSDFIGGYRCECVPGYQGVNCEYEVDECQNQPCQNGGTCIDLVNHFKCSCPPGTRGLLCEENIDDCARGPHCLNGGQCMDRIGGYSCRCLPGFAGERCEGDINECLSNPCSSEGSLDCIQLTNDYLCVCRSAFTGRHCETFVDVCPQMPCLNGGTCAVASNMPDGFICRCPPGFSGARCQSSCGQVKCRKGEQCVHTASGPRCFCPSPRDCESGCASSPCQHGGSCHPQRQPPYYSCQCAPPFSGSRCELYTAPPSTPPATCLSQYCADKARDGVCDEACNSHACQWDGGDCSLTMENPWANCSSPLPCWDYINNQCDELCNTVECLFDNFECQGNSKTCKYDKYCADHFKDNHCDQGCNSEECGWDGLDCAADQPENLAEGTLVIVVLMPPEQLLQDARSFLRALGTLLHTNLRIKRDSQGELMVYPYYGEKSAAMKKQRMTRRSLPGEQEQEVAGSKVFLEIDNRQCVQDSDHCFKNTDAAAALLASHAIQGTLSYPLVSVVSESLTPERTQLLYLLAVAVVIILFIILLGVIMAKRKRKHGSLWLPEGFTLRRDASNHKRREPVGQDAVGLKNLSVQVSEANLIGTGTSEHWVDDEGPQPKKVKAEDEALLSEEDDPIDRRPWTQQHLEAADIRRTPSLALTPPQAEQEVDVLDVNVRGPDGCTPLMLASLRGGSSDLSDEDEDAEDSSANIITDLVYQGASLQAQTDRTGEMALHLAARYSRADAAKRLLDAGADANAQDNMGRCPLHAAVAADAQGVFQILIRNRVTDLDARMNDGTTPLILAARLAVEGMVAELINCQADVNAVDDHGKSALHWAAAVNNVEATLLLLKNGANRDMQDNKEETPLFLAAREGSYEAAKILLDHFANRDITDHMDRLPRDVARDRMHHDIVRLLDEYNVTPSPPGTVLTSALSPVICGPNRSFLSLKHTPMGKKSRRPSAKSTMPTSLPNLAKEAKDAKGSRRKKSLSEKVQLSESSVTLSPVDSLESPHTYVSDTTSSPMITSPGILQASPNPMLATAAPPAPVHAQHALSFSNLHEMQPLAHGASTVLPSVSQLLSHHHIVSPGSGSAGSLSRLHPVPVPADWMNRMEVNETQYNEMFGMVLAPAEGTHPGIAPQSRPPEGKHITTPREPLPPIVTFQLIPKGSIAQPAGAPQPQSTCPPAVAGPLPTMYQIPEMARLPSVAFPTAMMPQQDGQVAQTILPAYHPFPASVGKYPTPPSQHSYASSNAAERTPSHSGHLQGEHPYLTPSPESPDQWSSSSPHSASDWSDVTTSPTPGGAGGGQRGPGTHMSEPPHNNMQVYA
- assay: Notch2 binders on small-molecule microarrays, primary screen, biochemical, small-molecule microarray, 635 nm fluorescence, stem cell growth factors (AID 1073)
- conditions: Notch2 binding, higher = more signal
Reply: number alone, nothing else.

Known results for compounds:
>>> assay_value("COCCOC(=O)N1C(=O)[C@@]2(c3cc(C#CCNC(N)=O)ccc31)[C@H](c1ccccc1OCCO)N1[C@H](c3ccccc3)[C@H](c3ccccc3)OC(=O)[C@H]1[C@@H]2C(=O)NC[C@H](O)c1ccccc1")
0.472
>>> assay_value("Cc1ccc(S[C@]2(C(=O)NCCCN(C)C)CC(=O)N(Cc3ccccc3)[C@@H]2c2ccc(CO)cc2I)cc1")
-0.189

Specify composite z-score for CC(=O)NCCCC[C@@H]1NC(=O)[C@H]2C[C@@H](C(=O)NCCCCCCN(C)C)[C@@H](c3cccc(OCCO)c3)N2C1=O and stop. 1.54

###

- Test system: Lefty1
- assay: Lefty1 binders on small-molecule microarrays, primary screen, biochemical, small-molecule microarray, 635/667 nm fluorescence (AID 1139)
- conditions: small-molecule microarray binding, fluorescence 635/667; higher = more signal
Binning scheme for composite z-score: LOW = under -0.04, MEDIUM = from -0.04 up to 0.6, HIGH = 0.6 and over

// known answers, use as guide
>>> qualitative_label("COc1ccc([Si](C)(C)[C@@H]2[C@@H](CCO)O[C@]3(C(=O)N(Cc4ccccc4)c4ccccc43)[C@H]2C)cc1")
"MEDIUM"
>>> qualitative_label("CCN1C(C)=C(C(=O)OC)[C@@H](c2ccccc2)N2C(=O)[C@@]3(C(=O)OC)O[C@@]12[C@@H]1C(=O)N(C)C(=O)[C@@H]13")
"HIGH"
>>> qualitative_label("O=C(NCc1ccccc1)c1ccc(Br)cc1[N+](=O)[O-]")
"MEDIUM"
>>> qualitative_label("CCC#CCN(Cc1ccccc1Br)[C@H](/C=C/c1ccccc1)[C@@H](O)Cc1ccccc1")
"LOW"

Using the reported composite z-score, which band applies to CN(C)CCCC[C@@H]1NC(=O)[C@@H]2C[C@H](C(=O)NCCCCCNC(=O)CS)[C@H](c3ccc(O)cc3)N2C1=O ? HIGH

Using the reported composite z-score, which band applies to COCCOC(=O)N1C(=O)[C@@]2(c3cc(C#CC4=CCCCC4)ccc31)[C@H](c1ccc(O)cc1)N1[C@H](c3ccccc3)[C@H](c3ccccc3)OC(=O)[C@H]1[C@@H]2C(=O)N1CCCCCCC1 ? HIGH

Using the reported composite z-score, which band applies to CCc1cccc(NC(=O)O[C@H]2[C@H](OC(=O)Nc3ccccc3)[C@@H](OC(=O)Nc3ccccc3)[C@@H](OC)O[C@@H]2CO)c1 ? HIGH

Using the reported composite z-score, which band applies to C[C@@H]1C=CCC(=O)OC[C@H]2O[C@@H](C=C[C@@H]2O)[C@H](C)C=CCC(=O)OC[C@H]2O[C@H]1C=C[C@@H]2O ? HIGH

Using the reported composite z-score, which band applies to CSCC[C@@H]1NC(=O)CC=C[C@@H](C)COC(=O)[C@H](CCSC)NC(=O)CC=C[C@@H](C)COC1=O ? MEDIUM

Using the reported composite z-score, which band applies to COCCOC(=O)N1C(=O)[C@@]2(c3cc(C#CCCO)ccc31)[C@H](c1ccc(O)cc1)N1[C@H](c3ccccc3)[C@H](c3ccccc3)OC(=O)[C@H]1[C@@H]2C(=O)Nc1nc2ccccc2s1 ? HIGH
